subject of test: human κ-opioid receptor (OPRK1) (Homo sapiens)
test details: Forskolin-induced cAMP accumulation assay, KOR agonist mode
property name: pEC50
Convention used: pEC50 is expressed as -log10 of the molar concentration.

Observe how each entry below is paired with its result.
compound: CC1C2Cc3ccc(O)cc3C1(C)CCN2CCc1ccccc1[N+](=O)[O-] (stereo not drawn)
pEC50: 7.80
//
compound: CC1C2Cc3ccc(O)cc3C1(C)CCN2CCc1ccc(C(F)(F)F)cc1 (stereo not drawn)
pEC50: 7.64
//
compound: C[C@H]1[C@H]2Cc3ccc(O)cc3[C@]1(C)CCN2CCC1CCN(C)CC1
pEC50: 10.30
//
compound: C=C1c2ccc(O)cc2[C@@]2(C)CCN(CCc3ccccc3)[C@@H]1[C@H]2C [(+)-38]
pEC50: 5.93
//
compound: CC1C2Cc3ccc(O)cc3C1(C)CCN2CCc1ccccc1C(F)(F)F (stereo not drawn)
pEC50: 7.44

Q: Sample CC1C2Cc3ccc(O)cc3C1(C)CCN2CCc1ccccc1Cl (stereo not drawn) — what was its pEC50?
Ans: 8.10

Q: Sample "C[C@H]1[C@H]2Cc3ccc(O)cc3[C@]1(C)CCN2CCc1ccc(F)cc1" — what was its pEC50?
Ans: 8.15

Q: Sample C=C1c2ccc(O)cc2[C@]2(C)CCN(CCc3ccccc3)[C@H]1[C@@H]2C [(−)-38] — what was its pEC50?
Ans: 8.02

Q: Sample CC1C2Cc3ccc(O)cc3C1(C)CCN2CCc1ccc([N+](=O)[O-])cc1 (stereo not drawn) — what was its pEC50?
Ans: 7.89

Q: Sample CC1C2Cc3ccc(O)cc3C1(C)CCN2CCc1ccc(O)cc1 (stereo not drawn) — what was its pEC50?
Ans: 8.10

Q: Sample COc1ccc(CCN2CCC3(C)c4cc(O)ccc4CC2C3C)cc1 (stereo not drawn) — what was its pEC50?
Ans: 8.05

Q: Sample CC1c2ccc(O)cc2[C@]2(C)CCN(CCc3ccccc3)[C@H]1[C@@H]2C (single isomer, unassigned; (-)) [(−)-39] — what was its pEC50?
Ans: 7.68

Q: Sample CC1C2Cc3ccc(O)cc3C1(C)CCN2CCc1ccc(Cl)cc1Cl (stereo not drawn) — what was its pEC50?
Ans: 7.38

Q: Sample Cc1ccc(CCN2CCC3(C)c4cc(O)ccc4CC2C3C)cc1 (stereo not drawn) — what was its pEC50?
Ans: 7.89

Q: Sample CC1C2Cc3ccc(O)cc3C1(C)CCN2CCc1ccc(Cl)cc1 (stereo not drawn) — what was its pEC50?
Ans: 8.30

* * *

subject of test: UniProtKB P41143
test details: Forskolin-induced cAMP accumulation assay, DOR agonist mode
pEC50: −log10 of the molar value.
Consider the following partition of reported pEC50 into named classes: interval 1: < 7; interval 2: ≥ 7 and < 8; interval 3: ≥ 8

Solved cases below.
molecule: CC1C2Cc3ccc(O)cc3C1(C)CCN2CCc1ccccc1C(F)(F)F (stereo not drawn)
subject of test: UniProtKB P41143
category label: interval 2
//
molecule: CC1C2Cc3ccc(O)cc3C1(C)CCN2CCc1ccc(Cl)cc1Cl (stereo not drawn)
subject of test: UniProtKB P41143
category label: interval 2

Q: Category of CC1C2Cc3ccc(O)cc3C1(C)CCN2CCc1ccc(Br)cc1 (stereo not drawn) , please.
Ans: interval 3

Q: Category of "C[C@H]1[C@H]2Cc3ccc(O)cc3[C@]1(C)CCN2CCc1c[nH]c2ccccc12" , please.
Ans: interval 1

Q: Category of CC1C2Cc3ccc(O)cc3C1(C)CCN2CCc1c(Cl)cccc1Cl (stereo not drawn) , please.
Ans: interval 2

* * *

subject of test: UniProt:P35372
Sequence (P35372 whole entry): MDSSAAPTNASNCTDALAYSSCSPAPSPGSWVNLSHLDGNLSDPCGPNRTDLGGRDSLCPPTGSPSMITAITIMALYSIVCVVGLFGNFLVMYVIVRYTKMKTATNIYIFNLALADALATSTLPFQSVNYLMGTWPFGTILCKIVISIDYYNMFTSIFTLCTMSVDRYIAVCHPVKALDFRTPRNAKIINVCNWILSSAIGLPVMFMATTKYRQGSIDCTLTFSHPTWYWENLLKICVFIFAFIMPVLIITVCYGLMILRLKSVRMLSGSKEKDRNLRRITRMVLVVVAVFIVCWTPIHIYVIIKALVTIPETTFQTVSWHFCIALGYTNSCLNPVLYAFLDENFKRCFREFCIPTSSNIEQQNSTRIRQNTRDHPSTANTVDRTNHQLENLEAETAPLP
test details: cell-based
condition context: MOR Agonist EC50 ± SEM
Flag rule - EC50 less than 5 nM flags YES; the remaining entries get NO.

Solved cases below.
molecule: CC1C2Cc3ccc(O)cc3C1(C)CCN2CCc1ccc(Br)cc1 (stereo not shown)
category label: YES
//
molecule: CC1C2Cc3ccc(O)cc3C1(C)CCN2CCc1ccc(O)cc1 (stereo not shown)
category label: YES
//
molecule: CC1C2Cc3ccc(O)cc3C1(C)CCN2CCc1ccccc1Br (stereo not shown)
category label: YES
//
molecule: CC1C2Cc3ccc(O)cc3C1(C)CCN2CCc1ccccc1[N+](=O)[O-] (stereo not shown)
category label: YES
//
molecule: C[C@H]1[C@H]2Cc3ccc(O)cc3[C@]1(C)CCN2CCCc1ccc([N+](=O)[O-])cc1
category label: NO

Q: Given CC1C2Cc3ccc(O)cc3C1(C)CCN2CCc1cccc(Cl)c1 (stereo not shown) , is recorded EC50 strictly lower than 5 nM?
Ans: NO

Q: Given C[C@@H]1[C@@H]2C(O)c3ccc(O)cc3[C@@]1(C)CCN2CCc1ccccc1 (single isomer, unassigned; (+)) [(+)-36] , is recorded EC50 strictly lower than 5 nM?
Ans: NO

Q: Given CC1C2Cc3ccc(O)cc3C1(C)CCN2CCc1ccccc1 (stereo not shown) , is recorded EC50 strictly lower than 5 nM?
Ans: YES

* * *

subject of test: human κ-opioid receptor (OPRK1) (Homo sapiens, UniProt P41145)
Sequence (P41145 whole entry): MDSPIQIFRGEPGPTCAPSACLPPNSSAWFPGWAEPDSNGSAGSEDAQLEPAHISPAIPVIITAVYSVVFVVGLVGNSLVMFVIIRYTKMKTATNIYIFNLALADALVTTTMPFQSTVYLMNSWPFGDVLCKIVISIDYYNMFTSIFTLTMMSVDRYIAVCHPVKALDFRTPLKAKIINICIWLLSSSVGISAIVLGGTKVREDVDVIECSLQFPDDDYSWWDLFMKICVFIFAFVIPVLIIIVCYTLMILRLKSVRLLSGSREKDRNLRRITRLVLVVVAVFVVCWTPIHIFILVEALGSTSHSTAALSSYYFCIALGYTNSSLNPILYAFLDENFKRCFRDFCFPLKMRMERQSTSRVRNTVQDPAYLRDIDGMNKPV
test details: Forskolin-induced cAMP accumulation assay, KOR antagonist mode
condition context: versus EC90 of U50488H; Imax normalized to nor-BNI
KOR Antagonist %Imax ± SEM: recorded values
Give the value in % but do not write % after it.

compound: CC1C2Cc3ccc(O)cc3C1(C)CCN2CCc1cccc(F)c1 (stereo not shown)
KOR Antagonist %Imax ± SEM (%): 87

compound: CC1C2Cc3ccc(O)cc3C1(C)CCN2CCc1ccccc1[N+](=O)[O-] (stereo not shown)
KOR Antagonist %Imax ± SEM (%): 89

compound: CC1c2ccc(O)cc2[C@]2(C)CCN(CCc3ccccc3)[C@H]1[C@@H]2C (single isomer, unassigned; (-)) [(−)-39]
KOR Antagonist %Imax ± SEM (%): 57

Q: Sample CC1C2Cc3ccc(O)cc3C1(C)CCN2CCc1cccc(Cl)c1 (stereo not shown) — what was its KOR Antagonist %Imax ± SEM?
Ans: 108

* * *

KOR Antagonist %Imax ± SEM: recorded values
subject of test: human κ-opioid receptor (OPRK1) (Homo sapiens, UniProt P41145)
test details: Forskolin-induced cAMP accumulation assay, KOR antagonist mode
condition context: versus EC90 of U50488H; Imax normalized to nor-BNI
Give the value in % but do not write % after it.

Observe how each entry below is paired with its result.
compound: CC1C2Cc3ccc(O)cc3C1(C)CCN2CCc1ccccc1 (stereo not shown)
subject of test: human κ-opioid receptor (OPRK1) (Homo sapiens, UniProt P41145)
KOR Antagonist %Imax ± SEM [%]: 81

compound: CC1C2Cc3ccc(O)cc3C1(C)CCN2CCc1cccc(Br)c1 (stereo not shown)
subject of test: human κ-opioid receptor (OPRK1) (Homo sapiens, UniProt P41145)
KOR Antagonist %Imax ± SEM [%]: 99

compound: C[C@H]1[C@H]2Cc3ccc(O)cc3[C@]1(C)CCN2CCc1ccc(F)cc1
subject of test: human κ-opioid receptor (OPRK1) (Homo sapiens, UniProt P41145)
KOR Antagonist %Imax ± SEM [%]: 71

Now take the following compound into account.
Q: Sample CC1C2Cc3ccc(O)cc3C1(C)CCN2CCc1c(Cl)cccc1Cl (stereo not shown) — what was its KOR Antagonist %Imax ± SEM?
Ans: 87

* * *

subject of test: human δ-opioid receptor (OPRD1) (Homo sapiens)
Sequence (P41143 whole entry): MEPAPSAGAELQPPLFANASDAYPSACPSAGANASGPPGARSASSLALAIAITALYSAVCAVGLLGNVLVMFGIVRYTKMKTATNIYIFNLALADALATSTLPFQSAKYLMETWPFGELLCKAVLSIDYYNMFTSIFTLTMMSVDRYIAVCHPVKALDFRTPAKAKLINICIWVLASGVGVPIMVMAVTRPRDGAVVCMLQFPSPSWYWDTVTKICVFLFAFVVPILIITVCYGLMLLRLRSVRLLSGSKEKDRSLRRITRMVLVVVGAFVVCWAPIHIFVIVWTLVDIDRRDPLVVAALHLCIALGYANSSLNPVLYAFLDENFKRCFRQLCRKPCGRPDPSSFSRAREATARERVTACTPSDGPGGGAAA
test details: Forskolin-induced cAMP accumulation assay, DOR antagonist mode
property name: IC50

Q: # get_value(readout= IC50, system= human δ-opioid receptor (OPRD1) (Homo sapiens)) for "C[C@H]1[C@H]2Cc3ccc(O)cc3[C@]1(C)CCN2CCC1CCN(C)CC1"
Ans: > 10 µM

* * *

pEC50: recorded values
subject of test: human κ-opioid receptor (OPRK1) (Homo sapiens, UniProt P41145)
test details: Forskolin-induced cAMP accumulation assay, KOR agonist mode
Convention used: pEC50 is expressed as -log10 of the molar concentration.

Observe how each entry below is paired with its result.
compound: CC1C2Cc3ccc(O)cc3C1(C)CCN2CCc1ccccc1 (centres unmarked)
property name: pEC50
endpoint value: 8.47
--
compound: CC1C2Cc3ccc(O)cc3C1(C)CCN2CCc1ccccc1F (centres unmarked)
property name: pEC50
endpoint value: 8.22
--
compound: CC1C2Cc3ccc(O)cc3C1(C)CCN2CCc1ccc(Br)cc1 (centres unmarked)
property name: pEC50
endpoint value: 8.30
--
compound: CC1c2ccc(O)cc2[C@@]2(C)CCN(CCc3ccccc3)[C@@H]1[C@H]2C (single isomer, unassigned; (+)) [(+)-39]
property name: pEC50
endpoint value: 6.02

Now take the following compound into account.
Q: Sample CC1C2Cc3ccc(O)cc3C1(C)CCN2CCc1ccccc1Br (centres unmarked) — what was its pEC50?
Ans: 7.80

* * *

IC50: recorded values
subject of test: UniProtKB P41145
test details: Forskolin-induced cAMP accumulation assay, KOR antagonist mode
Give the value in nM but do not write nM after it.

Observe how each entry below is paired with its result.
compound: C[C@H]1[C@H]2Cc3ccc(O)cc3[C@]1(C)CCN2CCc1ccc(F)cc1
IC50 (nM): 368
//
compound: CC1c2ccc(O)cc2[C@]2(C)CCN(CCc3ccccc3)[C@H]1[C@@H]2C (single isomer, unassigned; (-)) [(−)-39]
IC50 (nM): 731

Q: Sample CC1C2Cc3ccc(O)cc3C1(C)CCN2CCc1c(Cl)cccc1Cl (centres unmarked) — what was its IC50?
Ans: 65

Q: Sample CC1C2Cc3ccc(O)cc3C1(C)CCN2CCc1cccc(Cl)c1 (centres unmarked) — what was its IC50?
Ans: 111

Q: Sample CC1C2Cc3ccc(O)cc3C1(C)CCN2CCc1ccccc1 (centres unmarked) — what was its IC50?
Ans: 281

Q: Sample CC1C2Cc3ccc(O)cc3C1(C)CCN2CCc1cccc(Br)c1 (centres unmarked) — what was its IC50?
Ans: 90

Q: Sample CC1C2Cc3ccc(O)cc3C1(C)CCN2CCc1ccccc1[N+](=O)[O-] (centres unmarked) — what was its IC50?
Ans: 717

Q: Sample CC1C2Cc3ccc(O)cc3C1(C)CCN2CCc1cccc(F)c1 (centres unmarked) — what was its IC50?
Ans: 274
